test: differential killing of epithelial or mesenchymal cells, primary screen, imaging, PC-3E GFP, TEM4-18 mCherry, co-culture (AID 1345086); details: imaging cell counts, measured here: epithelial PC-3E GFP cell survival, at 1 µM;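 further: cells exposed to compound for 72 h before imaging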
# if value of normalised cell number reaches 1, tag yes; if it stays below, tag no

Examples from the recorded data:
>  <molecule>
CC1=C(C/C=C(\C)CCC[C@H](C)CCC[C@H](C)CCCC(C)C)C(=O)c2ccccc2C1=O

>  <class name>
no

$$$$
>  <molecule>
C[N+](C)(C)CCCCCCCCCC[N+](C)(C)C

>  <class name>
yes

$$$$
>  <molecule>
CC(C(=O)O)c1cccc(C(=O)c2ccccc2)c1 (configuration not stated)

>  <class name>
yes

$$$$
>  <molecule>
COc1cc(C)c2c(c1C=O)Oc1c(c(C)c(O)c3c1C(O)OC3=O)OC2=O (configuration not stated)

>  <class name>
no

$$$$
>  <molecule>
C=CCCCCCCCCCCCC(O)CC(O)CO (configuration not stated) (tested in a mixture with another compound)

>  <class name>
yes

$$$$

// next entry
Task: hey, is normalised cell number for this one >= 1? CCCCC(=O)Oc1ccccc1C(=O)O
Result: yes

---

biological target: 6-phosphogluconate dehydrogenase, decarboxylating (Homo sapiens); assay: 6PGD enzyme inhibitors, primary screen, biochemical, human, recombinant enzyme, NADPH absorbance (AID 1159550); settings: recombinant 6PGD, NADPH absorbance 341 nm; at 10 µM; stronger effect = higher value
measured metric: inhibition (%)
Number only, in %; omit the unit.

>  <compound>
CC(=O)O[C@H]1C[C@@H](OC(C)=O)C(C)(C)C2C[C@@H](OC(C)=O)[C@@]3(C)C4=CC(=O)O[C@@H](c5ccoc5)[C@]4(C)CCC3[C@]21C (some centres undefined)

>  <target>
6-phosphogluconate dehydrogenase, decarboxylating (Homo sapiens)

>  <inhibition / %>
0.0743

$$$$

Task: Please give the measured inhibition for this compound: O=C(CCc1ccc(O)cc1)c1c(O)cc(O)cc1O[C@@H]1O[C@H](CO)[C@@H](O)[C@H](O)[C@H]1O
Result: 5.05

---

Items are presented alongside their recorded cell count.
experiment: sensitizers of A549 cells to miR-34 induction, primary screen, imaging, A549 dox-inducible miR-34, nuclei and caspase counts (AID 1347080); details: A549 miR-34 inducible, Hoechst nuclei count, 48 h; measured here: total cells without miR-34 induction
The response must contain the number and no unit.

Here's what some known entries look like.
>  <compound>
NCCC(O)(P(=O)(O)O)P(=O)(O)O

>  <cell count>
10800

$$$$
>  <compound>
CC1=C(C(=O)OC(C)C)C(c2cccc([N+](=O)[O-])c2)C(C(=O)OC2CN(C(c3ccccc3)c3ccccc3)C2)=C(N)N1 (stereo unspecified)

>  <cell count>
8100

$$$$
>  <compound>
CC(=O)NCc1c(I)c(NC(C)=O)c(I)c(C(=O)O)c1I

>  <cell count>
12600

$$$$

Task: Please give the measured cell count for this compound: CCN(C)C(=O)Oc1cccc([C@H](C)N(C)C)c1
Result: 11400

Task: Same thing, different compound: CN1[C@@H]2CC[C@H]1CC(OC(=O)[C@H](CO)c1ccccc1)C2 (stereo partly specified)
Result: 9390

Task: Same thing, different compound: O=C(O)Cc1ccc(OCCNC[C@H](O)c2ccccc2)cc1
Result: 10000

---

test: inhibitors of mitochondrial cytochrome c release, biochemical, purified mitochondria (AID 1603); settings: stronger effect = lower value;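 further: mouse liver mitochondria challenged with calcium chloride; signal normalized to the plate average as 100%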
Items are presented alongside their recorded cytochrome c release ratio.
The response must contain the number and no unit.

>  <molecule>
O=C(O)c1cc([N+](=O)[O-])ccc1NCCCc1ccccc1

>  <cytochrome c release ratio>
0.78

$$$$

Task: Please give the measured cytochrome c release ratio for this molecule: COc1ccc(/C=C/c2cc(O)cc(O[C@@H]3O[C@H](CO)[C@@H](O)[C@H](O)[C@H]3O)c2)cc1O
Result: 0.78

Task: Same thing, different molecule: NC(=O)c1ccc[n+]([C@@H]2O[C@H](COP(=O)([O-])OP(=O)(O)OC[C@H]3O[C@@H](n4cnc5c(N)ncnc54)[C@H](OP(=O)(O)O)[C@@H]3O)[C@@H](O)[C@H]2O)c1
Result: 0.78

Task: Same thing, different molecule: CCOC(=O)CCCCCCCCCCCCC1C=CCC1 (stereo not drawn)
Result: 1.01

Task: Same thing, different molecule: COc1cc(Cc2cnc(N)nc2N)cc(OC)c1OC
Result: 0.82

Task: Same thing, different molecule: C[N+](C)(C)CC(O)CC(=O)O (stereo not drawn)
Result: 0.99

Task: Same thing, different molecule: CCN(CC)CCOc1ccc2c(c1)C(=O)c1cc(OCCN(CC)CC)ccc1-2
Result: 0.81

Task: Same thing, different molecule: COC(=O)[C@H](c1ccccc1Cl)N1CCc2sccc2C1
Result: 0.98

---

assay: differential killing of epithelial or mesenchymal cells, primary screen, imaging, PC-3E GFP, TEM4-18 mCherry, co-culture (AID 1345086); conditions: imaging cell counts, measured here: epithelial PC-3E GFP cell survival, at 1 µM;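 further: cells exposed to compound for 72 h before imaging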
measured metric: normalised cell number
The response must contain the number and no unit.

Here's what some known entries look like.
>  <compound>
C[C@]12CC[C@@H](O)C[C@H]1CCc1ccccc12

>  <measured metric>
normalised cell number

>  <reading>
1.09

$$$$
>  <compound>
CN1CCc2cccc3c2C1Cc1ccc(O)c(O)c1-3 (stereo not drawn)

>  <measured metric>
normalised cell number

>  <reading>
1.2

$$$$
>  <compound>
CC(=O)[C@@]1(O)CCC2C3CCC4=CC(=O)CC[C@]4(C)C3CC[C@@]21C (stereo partly drawn)

>  <measured metric>
normalised cell number

>  <reading>
0.94

$$$$
>  <compound>
CC(C(=O)O)c1cccc(Oc2ccccc2)c1 (stereo not drawn)

>  <measured metric>
normalised cell number

>  <reading>
1.13

$$$$

Task: Please give the measured normalised cell number for this compound: CCCCCCCCCCCCCCCCCCCCCCO
Result: 0.99

Task: Same thing, different compound: COc1ccc(C(=O)O)c(O)c1OC
Result: 1.01

Task: Same thing, different compound: CC[C@H](/C=C/C(C)C1CCC2C3CCC4=CC(=O)CC[C@]4(C)C3CC[C@]12C)C(C)C (stereo partly drawn)
Result: 0.99

Task: Same thing, different compound: O=c1cc[nH]c(=O)[nH]1
Result: 1.05

Task: Same thing, different compound: CC(C)=CC1C(C(=O)O)C1(C)C (stereo not drawn)
Result: 0.96

Task: Same thing, different compound: CCC(C(N)=O)c1ccccc1 (stereo not drawn)
Result: 1.17

---

test: HD-MB03 medulloblastoma cell growth inhibition, synergistic combos for chromothripsis tumors, BGB or cisplatin IC20 combos (AID 1671455); conditions: HD-MB03 medulloblastoma cells, measured here: combo with BGB at IC20, at 0.5 µM, stronger effect = higher value;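 further: 0% = vehicle DMSO and 100% = high DMSO as cytotoxic control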
Items are presented alongside their recorded inhibition.

Here's what some known entries look like.
>  <compound>
CC1(C(=O)O)CCC2(C)CCC3(C)C(=CC(=O)C4C5(C)CCC(OC(=O)CCC(=O)O)C(C)(C)C5CCC43C)C2C1 (centres undefined)

>  <reading>
-6.04%

$$$$
>  <compound>
C[C@@H](CN1CC(=O)NC(=O)C1)N1CC(=O)NC(=O)C1

>  <reading>
-23.7%

$$$$
>  <compound>
Nc1ccc2cc3ccc(N)cc3nc2c1

>  <reading>
19.2%

$$$$
>  <compound>
O=c1c(O)c(-c2ccc(O)c(O)c2)oc2cc(O)ccc12

>  <reading>
1.14%

$$$$
>  <compound>
CN(N=O)C(=O)NC1C(O)OC(CO)C(O)C1O (centres undefined)

>  <reading>
-2.88%

$$$$

Next, consider the following compound.
Task: Please give the measured inhibition for this compound: CCOC(=O)Nc1ccc(NCc2ccc(F)cc2)nc1N
Result: -9.72%

---

assay: antimalarial activity against Dd2 strain (AID 2302);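 further: 0% = DMSO untreated growth and 100% = chloroquine plus artemisinin killed control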; conditions: P. falciparum Dd2 in RBCs, LDH growth readout, 72 h; at 2 µM; stronger effect = higher value
Items are presented alongside their recorded growth inhibition.
Number only, in %; omit the unit.

>  <compound>
O=C(NCCCCN1CC[C@@H]2c3cccc(O)c3CC[C@H]21)c1ccc(-c2ccccc2)cc1

>  <reading>
50

$$$$

Task: Please give the measured growth inhibition for this compound: COc1ccc(NC(=O)NC2CCN(CCCOc3ccnc4cc(Cl)ccc34)C2)cc1OC (stereo not given)
Result: 16

Task: Same thing, different compound: COCc1cccc(-c2cc(-c3ccc(S(C)(=O)=O)cc3)cnc2N)c1
Result: 88

Task: Same thing, different compound: COc1ccc(-c2cccc(NC(=O)c3cccc(Cl)c3)c2)cc1CN1CCNCC1
Result: 52

Task: Same thing, different compound: O=C(/C=C/c1ccc(Cl)c(Cl)c1)NCCCCCN1CCC(NC(=O)Nc2cccc(C(F)(F)F)c2)CC1
Result: 11
